Origin of values: paper PMC5503546

Please provide measured pIC50 for the entries that follow.
target: Human recombinant PTP-MEG2 (Homo sapiens); experiment: PTP activity assay (pNPP), PTP-MEG2; conditions: triplicate, mean ± S.E.M.
Sequence (P43378 whole entry): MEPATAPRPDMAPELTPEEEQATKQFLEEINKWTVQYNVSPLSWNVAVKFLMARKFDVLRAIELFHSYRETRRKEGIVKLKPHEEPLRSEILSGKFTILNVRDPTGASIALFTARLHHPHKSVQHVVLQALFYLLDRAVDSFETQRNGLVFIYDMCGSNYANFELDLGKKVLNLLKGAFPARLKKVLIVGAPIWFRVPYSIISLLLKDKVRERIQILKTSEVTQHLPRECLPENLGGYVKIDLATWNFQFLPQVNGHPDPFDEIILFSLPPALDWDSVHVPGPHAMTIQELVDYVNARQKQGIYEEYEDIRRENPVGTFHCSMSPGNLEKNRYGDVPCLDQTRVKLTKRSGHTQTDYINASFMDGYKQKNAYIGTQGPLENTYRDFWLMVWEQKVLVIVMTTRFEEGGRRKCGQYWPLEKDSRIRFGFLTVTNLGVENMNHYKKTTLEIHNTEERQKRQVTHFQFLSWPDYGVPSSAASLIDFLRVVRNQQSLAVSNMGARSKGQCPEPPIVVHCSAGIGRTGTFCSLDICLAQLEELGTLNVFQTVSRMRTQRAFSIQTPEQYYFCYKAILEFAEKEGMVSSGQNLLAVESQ
FYI, pIC50 means -log10 of a concentration in mol per litre.

Query the reported pIC50 for Human recombinant PTP-MEG2 (Homo sapiens); item: CCOC(=O)c1cc(OCC2CCCCC2)c2c(c1)oc1cc(F)c(C(C)C)cc12 [Compound 10c]
5.92

For CC(C)c1cc2c(cc1F)oc1cc(C(=O)O)cc(OCC3CC3)c12 [Compound 11e] then?
5.27

For COc1ccc(COc2cc(C(=O)OCC3CC3)cc3oc4cc(F)c(C(C)C)cc4c23)cc1 [Compound 11b] then?
5.97

For COC(=O)c1cc(O)c2c(c1)oc1cc(F)c(C(C)C)cc12 then?
5.30

For CCCCCCOc1cc(C(=O)OCC2CC2)cc2oc3cc(F)c(C(C)C)cc3c12 [Compound 11a] then?
5.62

For CCOC(=O)c1cc(OC(C)=O)c2c(c1)oc1cc(F)c(C(C)C)cc12 then?
5.43

For CCOC(=O)c1cc(OCc2ccc(OC)cc2)c2c(c1)oc1cc(F)c(C(C)C)cc12 [Compound 10d] then?
5.47

For CCCCCCOc1cc(C(=O)OCC2CCCCC2)cc2oc3cc(F)c(C(C)C)cc3c12 [Compound 11c] then?
5.50

For COc1ccc(COc2cc(C(=O)OCC3CCCCC3)cc3oc4cc(F)c(C(C)C)cc4c23)cc1 [Compound 11d] then?
6.08

For CCCCCCOc1cc(C(=O)OCC)cc2oc3cc(F)c(C(C)C)cc3c12 [Compound 10b] then?
5.91

For CCOC(=O)c1cc(OCC2CC2)c2c(c1)oc1cc(F)c(C(C)C)cc12 [Compound 10a] then?
6.49
